Biological target: (Homo sapiens)
Construct: human IGF1R kinase domain residues M954-C1367; made in house; host or cells: baculovirus expression (insect cells)
Assay: IGF1R kinase assay (LCCA), IGF 0P
Type: biochemical
Conditions: IGF1R kinase LCCA assay
Measured IC50 accompanies every entry in the list below.
Parameter: IC50

                            structure_string  reported_result
 0  O=C(NCCN1CCOCC1)c1nc(Nc2ccccc2Cl)nc(Nc2cc(C3CC3)n[nH]2)c1[N+](=O)[O-]   500 to 5000 nM
 1  CN(Cc1ccccc1Cl)c1ncc(Br)c(Nc2cc(C3CC3)[nH]n2)n1   500 to 5000 nM
 2  Cc1cc(Nc2cc(C3CC3)n[nH]2)nc(Nc2ccc3c(c2)CN(C(=O)OC(C)(C)C)CC3)n1   500 to 5000 nM
 3  CC(=O)Nc1ccc(Cl)c(Nc2ncc(Br)c(Nc3cc(C)on3)n2)c1   500 to 5000 nM
 4  Brc1cnc(Nc2ccc(-c3ccccc3)cc2)nc1Nc1cc(C2CC2)[nH]n1        > 5000 nM
 5   CC(C)CNc1ncc(Br)c(Nc2cc(C3CC3)[nH]n2)n1   500 to 5000 nM
 6  CN(C)c1ccc(Nc2nccc(Nc3cc(C4CC4)n[nH]3)n2)cc1   500 to 5000 nM
 7  Cc1cc(Nc2cc(C3CC3)[nH]n2)nc(NCc2cnc[nH]2)n1   500 to 5000 nM
 8  CN1CCN(CCNC(=O)c2cc(Nc3cc(C4CC4)[nH]n3)nc(NCc3cc(-c4ccccc4)no3)n2)CC1     50 to 500 nM
 9  COc1ccccc1CNc1nc(C)cc(Nc2cc(C3CC3)[nH]n2)n1   500 to 5000 nM
10  Brc1ccc(Br)c(Nc2ncc(Br)c(Nc3cc(C4CC4)n[nH]3)n2)c1     50 to 500 nM
11  CC(C)(C)OC(=O)N1CCC(CNc2ncc(Br)c(Nc3cc(C4CC4)n[nH]3)n2)CC1        > 5000 nM

----------
Biological target: IGF 3P (Homo sapiens, UniProt P08069)
Construct: human IGF1R kinase domain residues M954-C1367; made in house; host or cells: baculovirus expression (insect cells)
Sequence (P08069 954-1367): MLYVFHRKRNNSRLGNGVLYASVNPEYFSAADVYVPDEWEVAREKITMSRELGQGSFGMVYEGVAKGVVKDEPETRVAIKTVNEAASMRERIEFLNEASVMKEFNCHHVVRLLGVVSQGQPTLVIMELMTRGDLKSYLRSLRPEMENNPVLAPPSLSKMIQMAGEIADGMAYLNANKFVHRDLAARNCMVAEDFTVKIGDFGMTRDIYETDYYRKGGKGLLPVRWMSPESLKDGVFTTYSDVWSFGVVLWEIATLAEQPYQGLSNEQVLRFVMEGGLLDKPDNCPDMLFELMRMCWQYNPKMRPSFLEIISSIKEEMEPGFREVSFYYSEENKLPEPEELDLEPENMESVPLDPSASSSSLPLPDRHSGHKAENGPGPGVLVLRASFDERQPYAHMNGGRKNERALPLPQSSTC
Experiment: IGF1R kinase assay (LCCA), IGF 3P
Assay type: biochemical
Conditions: IGF1R kinase LCCA assay
Parameter: IC50

In [3]: df
Out[3]:
                                    compound  parameter  reported_result
 0  CCN(CC)CCCNC(=O)CCc1cccc(Nc2ncc(Br)c(Nc3cc(C4CC4)n[nH]3)n2)c1       IC50     50 to 500 nM
 1    CCCCNc1cc(C)nc(NCc2cc(-c3ccccc3)no2)n1       IC50        > 5000 nM
 2  CCN(CC)CCCNc1cc(Nc2cc(C3CC3)n[nH]2)nc(Nc2ccccc2Cl)n1       IC50   500 to 5000 nM
 3  Cc1cc(Nc2cc(C3CC3)[nH]n2)nc(NCc2cc(-c3ccc(Cl)cc3)no2)n1       IC50   500 to 5000 nM
 4  Brc1cnc(Nc2ccccc2N2CCOCC2)nc1Nc1cc(C2CC2)n[nH]1       IC50        > 5000 nM
 5  COc1cc(CNc2ncc(Br)c(Nc3cc(C4CC4)[nH]n3)n2)cc(OC)c1       IC50   500 to 5000 nM
 6      Clc1ccccc1Nc1ncc(Br)c(Nc2ccccc2Cl)n1       IC50   500 to 5000 nM
 7  Nc1ncnc2c1c(-c1ccc(NC(=O)C3(C(=O)Nc4ccc(F)cc4)CC3)cc1)cn2CC1CC2CNCC2C1 (centres unmarked)       IC50        > 5000 nM
 8  c1ccc(CN2CCc3c(nc(NCc4cc(-c5ccccc5)no4)nc3Nc3cc(C4CC4)[nH]n3)C2)cc1       IC50   500 to 5000 nM
 9  Cc1cc(Nc2cc(C)nc(NCc3cc(-c4ccccc4)no3)n2)[nH]n1       IC50     50 to 500 nM
10  Cc1cc(C)cc(Nc2ncc(Br)c(Nc3cc(C4CC4)n[nH]3)n2)c1       IC50     50 to 500 nM
